B1: CLCN6 (parent)
chain: MAGCRGSLCCCCRWCCCCGERETR

Variants of: B1
Assay: protein stability index of a GFP-peptide fusion (GPS, HEK-293T) (PSI 1-6); higher = more stable;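 further: lentivirally expressed fusions sorted by FACS into six bins by GFP to DsRed ratio, PSI derived from sequencing read proportions per bin multiplied by bin number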
Settings: c terminus: a fixed tail appended
Measured Parameter: protein stability index
Output: the number by itself.

Dear colleague, I am looking for the recorded protein stability index of the following variant: R13W
3.64

Reported protein stability index, variant C12G : ____
3.2

Any idea what protein stability index was measured for R13S ?
1.94

# protein stability index lookup, item C4Y
2.12

// protein stability index lookup, key: C11K
1.17

protein stability index for E22P ?
2.12

Looking for the measured protein stability index of C12T , can you help?
2.59

Recorded protein stability index of R21F , please.
1.06

Data request, read-out protein stability index, for M1D
1.78

What protein stability index value was documented for this variant, R5I ?
1.92

Reported protein stability index, variant R24S : ____
2.57

Tell me the measured protein stability index of R21A , please.
2.37

Any idea what protein stability index was measured for C12I ?
2.88

Quick check: protein stability index of R24P ?
2.38

Quick one: protein stability index of G6Q ?
2.28

Which protein stability index is reported for this variant? C9F
1.77

For T23R , what is its reported protein stability index?
1.77

Query (variant): C17R ; field requested: protein stability index
2.67

Give the measured protein stability index of A2D .
2

Name the reported protein stability index value associated with the variant S7Y
1.43

Give the measured protein stability index of R24I .
1.87

Item under review: C18W . Reported protein stability index?
3.21
